# EXPERIMENTAL TARGET: T1, huZIP12-ECD-GST (human, UniProt Q504Y0 24-202)
# T1 construct: also called hZIP12-ECD-GST; human ZIP12-ECD-GST; not shown: glutathione S-transferase (GST) tag
# T1 sequence (Q504Y0 24-202): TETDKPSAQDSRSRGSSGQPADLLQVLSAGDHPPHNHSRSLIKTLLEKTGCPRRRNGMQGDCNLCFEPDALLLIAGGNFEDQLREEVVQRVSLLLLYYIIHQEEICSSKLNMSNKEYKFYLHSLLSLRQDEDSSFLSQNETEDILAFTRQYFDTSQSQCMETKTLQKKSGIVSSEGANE
# PROTOCOL DETAILS: SPR single cycle kinetics (Biacore): mAb captured on protein A, huZIP12-ECD-GST injected at 2.34-600 nM, extended dissociation
Give measured koff for each item. Keep answers brief.
Answer format: numeric, s⁻¹ implied, no suffix.

Ask: Return the recorded koff value; entry: H2_G66Q_VL-par (antibody, V domains shown, Fc null human IgG1 / human kappa) VH: QVQLVESGGGVVQPGRSLRLSCAASGFTFSDYGMHWVRQAPGKGLEWVAYISSGGTTIYYADTVKQRFTISRDNSKNTLYLQMNSLRAEDTAVYYCARWTNLYAMDYWGQGTTVTVSS VL: DIVLTQSPDSLAVSLGERATINCRASKSVSTSGYSYMHWYQQKPGQPPKFLIYLASNLESGVPDRFSGSGSGTDFTLTISSLQAEDVAVYYCQHSREVPYTFGGGTKVEIKR
Result: 2.78e-05

Ask: Return the recorded koff value; entry: H2_T57H_L1 (antibody, V domains shown, Fc null human IgG1 / human kappa) VH: QVQLVESGGGVVQPGRSLRLSCAASGFTFSDYGMHWVRQAPGKGLEWVAYISSGGTHIYYADTVKGRFTISRDNSKNTLYLQMNSLRAEDTAVYYCARWTNLYAMDYWGQGTTVTVSS VL: DIVLTQSPDSLAVSLGERATINCRASKSVSTQGYSYMHWYQQKPGQPPKFLIYLASNLESGVPDRFSGSGSGTDFTLTISSLQAEDVAVYYCQHSREVPYTFGGGTKVEIKR
Result: 4.18e-05

Ask: Return the recorded koff value; entry: H3_W99H_L1 (antibody, V domains shown, Fc null human IgG1 / human kappa) VH: QVQLVESGGGVVQPGRSLRLSCAASGFTFSDYGMHWVRQAPGKGLEWVAYISSGGTTIYYADTVKGRFTISRDNSKNTLYLQMNSLRAEDTAVYYCARHTNLYAMDYWGQGTTVTVSS VL: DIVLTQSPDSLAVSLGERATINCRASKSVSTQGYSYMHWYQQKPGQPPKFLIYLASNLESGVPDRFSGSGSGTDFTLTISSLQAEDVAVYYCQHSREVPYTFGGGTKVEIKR
Result: 3.14e-05
